B1: EHMT1 (parent)
chain: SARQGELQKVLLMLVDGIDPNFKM

Variants of: B1
Assay: protein stability index of a GFP-peptide fusion (GPS, HEK-293T) (PSI 1-6); higher = more stable;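 note: lentivirally expressed fusions sorted by FACS into six bins by GFP to DsRed ratio, PSI derived from sequencing read proportions per bin multiplied by bin number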
Details: c terminus: a fixed tail appended
Returns one of 1 or 0; 1 when protein stability index is >= 2.

F22L | 0
L14P | 1
M13Y | 1
R3H | 0
P20R | 0
K9N | 0
L12K | 0
V10Y | 1
D16L | 1
L14C | 0
V15P | 1
Q4L | 1
S1M | 0
L12F | 1
F22A | 0
K23A | 1
L14S | 1
M24R | 0
V15C | 0
A2G | 0
K9S | 1
F22W | 1
F22G | 1
G5R | 1
Q8D | 0
E6D | 0
F22Y | 0
G17L | 1
Q4A | 1
D19T | 1
D19E | 0
G17F | 1
F22Q | 0
E6T | 1
P20A | 1
Q8G | 1
I18V | 0
N21W | 1
G5E | 0
D16V | 1
L11A | 1
R3N | 1
R3E | 1
N21I | 0
G5A | 1
S1T | 1
V15H | 0
Q8Y | 0
S1P | 0
M13I | 0
L14M | 1
M24P | 1
S1Y | 0
K23N | 0
G5P | 1
V10R | 0
K9H | 0
I18C | 1
S1W | 1
Q4F | 1
I18D | 1
M24E | 1
L14A | 1
G17M | 0
L12P | 1
E6Q | 0
Q8N | 1
Q8H | 0
L11Q | 1
